assay: clinical; settings: human, in vivo, iv, t1/2

[
  {
    "Compound": "NC[C@H]1O[C@H](O[C@H]2[C@H](O[C@@H]3O[C@H](CO)[C@@H](O)[C@H]3O)[C@@H](O)[C@H](N)C[C@@H]2N)[C@H](N)[C@@H](O)[C@@H]1O [RIBOSTAMYCIN]",
    "Result Units": "h",
    "half-life": 2.5
  },
  {
    "Compound": "CCN(CC)CCNC(=O)c1ccc(NC(C)=O)cc1 [ACECAINIDE]",
    "Result Units": "h",
    "half-life": 6.4
  },
  {
    "Compound": "N[C@H](C(=O)O)[C@@H]1CC(Cl)=NO1 [ACIVICIN]",
    "Result Units": "h",
    "half-life": 9.9
  },
  {
    "Compound": "CO/N=C(\\C(=O)N[C@@H]1C(=O)N2C(C(=O)O)=C(CSc3nc(=O)c(=O)[nH]n3C)CS[C@H]12)c1csc(N)n1 [CEFTRIAXONE]",
    "Result Units": "h",
    "half-life": 8.6
  }
]

---

experiment: clinical; conditions: human, in vivo, iv
Square brackets hold non-standard residues; d marks the D form. Peptide text beside a SMILES is read from it. dPhe(4-Cl) = N[C@H](Cc1ccc(Cl)cc1)C(=O)O; d2Nal = N[C@H](Cc1ccc2ccccc2c1)C(=O)O; dCit = NC(=O)NCCC[C@@H](N)C(=O)O; d3Pal = N[C@H](Cc1cccnc1)C(=O)O
Experimental Endpoint: fraction unbound

[
  {
    "Compound": "N[C@@H](Cc1ccc(N(CCCl)CCCl)cc1)C(=O)O",
    "Numeric Result": 0.14
  },
  {
    "Compound": "CC(=O)N[C@H](Cc1ccc2ccccc2c1)C(=O)N[C@H](Cc1ccc(Cl)cc1)C(=O)N[C@H](Cc1cccnc1)C(=O)N[C@@H](CO)C(=O)N[C@@H](Cc1ccc(O)cc1)C(=O)N[C@H](CCCNC(N)=O)C(=O)N[C@@H](CC(C)C)C(=O)N[C@@H](CCCNC(=N)N)C(=O)N1CCC[C@H]1C(=O)N[C@H](C)C(N)=O [CETRORELIX] (Ac-[d2Nal][dPhe(4-Cl)][d3Pal]SY[dCit]LRP[dA]-NH2)",
    "Numeric Result": 0.14
  }
]

---

test: clinical; details: human, in vivo, iv
Record met whenever fraction unbound is at 0.6 or higher; record not met when lower.

[
  {
    "Compound": "CC1(C)S[C@@H]2[C@H](NC(=O)[C@H](NC(=O)N3CCNC3=O)c3ccccc3)C(=O)N2[C@H]1C(=O)O",
    "Assigned Category": "met"
  },
  {
    "Compound": "COc1ccnc(C[S+]([O-])c2nc3ccc(OC(F)F)cc3[nH]2)c1OC (stereo not given)",
    "Assigned Category": "not met"
  },
  {
    "Compound": "CC[C@H]1OC(=O)[C@H](C)C(=O)[C@H](C)[C@@H](O[C@@H]2O[C@H](C)C[C@H](N(C)C)[C@H]2O)[C@](C)(OC)C[C@@H](C)C(=O)[C@H](C)[C@H]2N(CCCCn3cnc(-c4cccnc4)c3)C(=O)O[C@]12C",
    "Assigned Category": "not met"
  },
  {
    "Compound": "Nc1nc(Cl)nc2c1ncn2[C@H]1C[C@H](O)[C@@H](CO)O1",
    "Assigned Category": "met"
  },
  {
    "Compound": "CCOc1ccc(NC(C)=O)cc1",
    "Assigned Category": "not met"
  },
  {
    "Compound": "CCn1cc(C(=O)O)c(=O)c2cc(F)c(N3CCNCC3)nc21",
    "Assigned Category": "met"
  },
  {
    "Compound": "CC(=O)O[C@H]1C[C@@H]2CC[C@@H]3[C@H](CC[C@@]4(C)[C@H]3C[C@H]([N+]3(C)CCCCC3)[C@@H]4OC(C)=O)[C@@]2(C)C[C@@H]1N1CCCCC1.[Br-] [VECURONIUM BROMIDE]",
    "Assigned Category": "not met"
  },
  {
    "Compound": "COc1cc([C@@H]2c3cc4c(cc3C(OC3OC5COC(C)OC5C(O)C3N)C3COC(=O)[C@@H]32)OCO4)cc(OC)c1O (stereo not given in full)",
    "Assigned Category": "not met"
  },
  {
    "Compound": "CN(C)[C@@H]1C(O)=C(C(=O)NCN2CCCC2)C(=O)[C@@]2(O)C(O)=C3C(=O)c4c(O)cccc4[C@@](C)(O)[C@H]3C[C@@H]12",
    "Assigned Category": "not met"
  },
  {
    "Compound": "C[C@]12C=CC(=O)C=C1CC[C@@H]1[C@@H]2[C@@H](O)C[C@@]2(C)[C@H]1CC[C@]2(O)C(=O)CO",
    "Assigned Category": "not met"
  },
  {
    "Compound": "CN[C@H]1C(=O)N[C@@H]2Cc3ccc(cc3)Oc3cc4cc(c3O[C@@H]3O[C@H](C(=O)O)[C@@H](O)[C@H](O)[C@H]3NC(=O)CCCCCCCCC(C)C)Oc3ccc(cc3Cl)[C@@H](O)[C@@H]3NC(=O)[C@H](NC(=O)[C@@H]4NC(=O)[C@@H](NC2=O)c2cc(cc(O)c2Cl)Oc2cc1ccc2O)c1ccc(O)c(c1)-c1c(O[C@H]2O[C@H](CO)[C@@H](O)[C@H](O)[C@@H]2O)cc(O)cc1[C@@H](C(=O)NCCCN(C)C)NC3=O",
    "Assigned Category": "not met"
  },
  {
    "Compound": "COCC(=O)Nc1c(I)c(C(=O)NCC(O)CO)c(I)c(C(=O)N(C)CC(O)CO)c1I (stereo not given) [IOPROMIDE]",
    "Assigned Category": "met"
  },
  {
    "Compound": "Nc1nc(/C(=N/O)C(=O)N[C@@H]2C(=O)N3C(C(=O)O)=C(/C=C4\\CCN([C@@H]5CCNC5)C4=O)CS[C@H]23)ns1",
    "Assigned Category": "met"
  },
  {
    "Compound": "Nc1ccn([C@@H]2O[C@H](CO)[C@@H](O)C2(F)F)c(=O)n1",
    "Assigned Category": "met"
  },
  {
    "Compound": "CN(C)[C@@H]1C(O)=C(C(N)=O)C(=O)[C@@]2(O)C(O)=C3C(=O)c4c(O)cccc4[C@@](C)(O)[C@H]3[C@H](O)[C@@H]12",
    "Assigned Category": "met"
  },
  {
    "Compound": "Nc1ccc(S(=O)(=O)c2ccc(N)cc2)cc1",
    "Assigned Category": "not met"
  },
  {
    "Compound": "CCCC(=O)N1CCCN(c2nc(N)c3cc(OC)c(OC)cc3n2)CC1",
    "Assigned Category": "not met"
  },
  {
    "Compound": "CCOC(=O)[C@@H]1C2CCC(C[C@@H]1OC(=O)c1ccccc1)N2C (stereo not given in full)",
    "Assigned Category": "met"
  },
  {
    "Compound": "C/C=C/C[C@@H](C)C(=O)[C@H]1C(=O)N[C@@H](C(C)C)C(=O)N(C)CC(=O)N(C)[C@@H](CC(C)C)C(=O)N[C@@H](C(C)C)C(=O)N(C)[C@@H](CC(C)C)C(=O)N[C@@H](C)C(=O)N[C@H](C)C(=O)N(C)[C@@H](CC(C)C)C(=O)N(C)[C@@H](CC(C)C)C(=O)N(C)[C@@H](C(C)C)C(=O)N1C",
    "Assigned Category": "not met"
  },
  {
    "Compound": "CO/N=C(\\C(=O)N[C@@H]1C(=O)N2C(C(=O)[O-])=C(C[n+]3cccc4c3CCC4)CS[C@H]12)c1csc(N)n1",
    "Assigned Category": "met"
  },
  {
    "Compound": "C[C@@H](O)[C@H]1C(=O)N2C(C(=O)O)=C(S[C@H]3C[C@@H](C(=O)N4CC[C@H](NC(=O)CNC(=N)N)C4)N(C)C3)[C@H](C)[C@H]12",
    "Assigned Category": "met"
  },
  {
    "Compound": "COCC(=O)O[C@]1(CCN(C)CCCc2nc3ccccc3[nH]2)CCc2cc(F)ccc2[C@@H]1C(C)C",
    "Assigned Category": "not met"
  },
  {
    "Compound": "CC(C)=CCN1CC[C@]2(C)c3cc(O)ccc3C[C@H]1[C@H]2C [(+)-PENTAZOCINE]",
    "Assigned Category": "not met"
  },
  {
    "Compound": "CCOc1ccc2ccccc2c1C(=O)N[C@@H]1C(=O)N2[C@@H]1SC(C)(C)[C@@H]2C(=O)O",
    "Assigned Category": "not met"
  }
]

These entries and their values trace back to ChEMBL document CHEMBL1614632.
